experiment: protein stability index of a GFP-peptide fusion (yeast GPS) (PSI 1-4); higher = more stable; sorted into four equal gates, so the index is relative within each strain; settings: ubr1∆
Test readout: protein stability index
API doc: respond with a numeric literal and nothing else, no unit.

1. KELQQLQKQILTVENKL [SMC1] ... 2.18
2. KKECALLISYGVSIENE [SRB4] ... 2.03
3. PPPPQQSQPIANQSATS [SNF5] ... 3.05
4. PVIDYELKEITSLPDWC [BRR2] ... 3.05
5. VQKQTRAGQRTRFKAVV [RPS2] ... 3.23
6. LTPNEIKELEHLHDAVF [SWP82] ... 2.95
7. QQQQQHQQQQQQQQQQQ [SNF5] ... 2.97
8. VPKHMLDKLDEILYYQI [AAR2] ... 3.17

Suppose we examine the sequence GKTIVVKDLGQGLKLAK [SMC3] ; what protein stability index value has been reported?
2.81

Next sequence: SLKKVDEIKAQRKEIKD [SMC4]
3.4

Cool, now PAWRVWLNFLRGTIPLL [PRP8]
2.96

Can you handle GELLHHPIMETIVNDSN [RPN9] next?
2.97

Ok, now INELFKKYTQNNPLLLI [RPN8]
1.11

Likewise for QKMAELEAARSEKQNDE [PRP8] ?
1.8

Same read-out for KVVIPNLLCYYNLRSLN [RPN3] ?
2.65

What about VFEISENNSDSNSNNNG [SWI1] ?
3.28

Cool, now GKGHLVGRLASVVAKQL [RPL16A]
1.32

What about NRRKQSFVLNKNTIDFE [RPN4] ?
1.88

###

test: protein stability index of a GFP-peptide fusion (yeast GPS) (PSI 1-4); higher = more stable; sorted into four equal gates, so the index is relative within each strain; conditions: san1∆
protein stability index by entry:
Could you respond with only the numeric value?

Use these answered entries as a reference point.
1) VGFLVQLDLTGIFLHGK [PRP8] ... 2.33
2) SEAEYSKDIETLKKEWL [YIL149C/MLP2] ... 3.13
3) DTQFTKLLDDNPTEFDW [SRB8] ... 2.91
4) CVHMVYEYAEHDLLQII [SSN3] ... 2.12
5) EDVVAISSRTYGQRAVL [RPS0B] ... 3.01
6) DQAELPNNASSHISASA [SNF2] ... 2.1
7) EGNYRNLNNLKQENAYL [RPB8] ... 3.27
8) DDMDIDEVNDRSDISDS [PCI8] ... 3.26
9) GTPEATKGMITNLQRNV [NUT2] ... 2.94
10) QNSLLTNTHPNFLSKIR [SNF2] ... 3.01

protein stability index lookup needed for KVKNQGADVTNTTQDNG [YCS4] , thanks.
3.11

Check NSDIANLRTQVTQQKRS [SMC1] too.
2.97

Next sequence: RILKNKAEYLKNCPITQ [RPC40]
3.02

Now the same for EIGILDHVDGSSEFVSQ [RRP46]
2.24

Same for IFLSKENSAVAAKEGLA [COR1]
1.95

###

experiment: protein stability index of a GFP-peptide fusion (yeast GPS) (PSI 1-4); higher = more stable; sorted into four equal gates, so the index is relative within each strain; conditions: ubr1∆
protein stability index vs 3: at or above is condition met, below is condition not met.

1. ASKSKKKFNMGKEFEAR [RPC53] ... condition met
2. TAASVFKELCYENKDNL [PRE3] ... condition not met
3. IKKEEGKIDEAADILCE [RPN5] ... condition not met
4. EDDDIRSRMLPTITLDD [SNF5] ... condition met

protein stability index >= 3 for DKRIVISIDSWPTTHKY [DIS3] ?
condition not met

Now consider MYTRLCICSGMLFEMDG [SIN4] and answer again.
condition not met

What do you have for AYVAIEQVKDDGTSTEK [RPN8] ?
condition not met

Now consider LLKLERKKTEAVARLKS [SNF2] and answer again.
condition not met

Would you mind doing EFDRRILKKSLMTSHTK [RTT102] as well?
condition met

Same read-out for LQKALTVKTNDELMVIY [RPN8] ?
condition not met

###

experiment: protein stability index of a GFP-peptide fusion (yeast GPS) (PSI 1-4); higher = more stable; sorted into four equal gates, so the index is relative within each strain; conditions: pdr5∆
Measured protein stability index accompanies every entry in the list below.
Form field (numeric): enter value without unit.

Below are worked cases with known answers.
1) GTNAMLPSPESLKTKLN [SNF5] ... 1.97
2) SSGDFDDNNNNNNNNNN [GRR1] ... 3.18
3) LVSSYLNKSDLLDKYGK [YML103C/NUP188] ... 3.13

Fill in the blank: the reported protein stability index of KMFQDIRLSKILEDDFA [CDC53] is ____.
3.04

Next entry: TYGFSILDIVINNPVNL [FAS1]
2.37

Check LLLKDQQTAKKLIPKLY [ECM29] too.
2.46

Follow-up entry: FNVPVVSKQLGNGLVDE [YAR002W/NUP60]
3.66

Follow-up entry: GCLHKGKLISNLSSTPM [YML031W/NDC1]
1.81

Try the sequence QKLWLLECQLFPQGLNI [SSN8]
1.92

###

assay: protein stability index of a GFP-peptide fusion (yeast GPS) (PSI 1-4); higher = more stable; sorted into four equal gates, so the index is relative within each strain; details: ubr1∆
Test readout: protein stability index
Could you keep your reply to the number by itself?

Which protein stability index reading was recorded for the sequence YWKLWIDEPFNLDFDPR [FAS1] ?
2.27

###

assay: protein stability index of a GFP-peptide fusion (yeast GPS) (PSI 1-4); higher = more stable; sorted into four equal gates, so the index is relative within each strain; details: doa10∆
Could you label it Criterion met if measured protein stability index is 2 or higher, and Criterion not met otherwise?

Would you please look over these solved cases?
1. KFTIEPGVLPVGIDTHT [SNF2] ... Criterion met
2. ALSIADDASSAELLGRV [RPC53] ... Criterion met
3. EEQEKINSAPDFTQEDE [ISW2] ... Criterion met
4. NNPLVQKKNFLFKPLNK [ARP7] ... Criterion met
5. SYFLQERYFDCCTKFFT [PCI8] ... Criterion not met
6. NLDAAAAGTSQARTATL [RPC10] ... Criterion met
7. VVDPKTSIEKSSEILSY [YML103C/NUP188] ... Criterion not met
8. KIKDNKEKIKNNRQLPY [RPT5] ... Criterion met

Given the entry TAVAFWSWDIAVDNCAI [HRT1] , answer whether its protein stability index meets or surpasses 2.
Criterion not met

Next up: INHKINNKITQLIAKNV [SIR3]
Criterion not met

Entry VADEEANIELTWAEGTF [RPC37] please
Criterion met

Can you check LFAFNGVARNFHFAIEQ [SIN4] next?
Criterion met

Queued: NDVTRRTVKNILVSVLP [CSL4]
Criterion met

###

experiment: protein stability index of a GFP-peptide fusion (yeast GPS) (PSI 1-4); higher = more stable; sorted into four equal gates, so the index is relative within each strain; conditions: doa10∆
protein stability index overview

1. TGLCSFDYSVILNSIPA [YJL039C/NUP192] ... 1.6

I am curious: what protein stability index value has been reported for IALSRRFLLNGRVKALE [YDL116W/NUP84] ?
1.25

Also KKYLKKNQLRDWIRFVS [RPL22A] , if possible.
1.8

Same thing, different sequence: LTKYKEMERIVKNLTKY [SRP68]
2.96

Now try LLKEEKIIELMNKIFTI [YML103C/NUP188] .
2.81

Next sequence: EGRLLDNVQANDPAREK [SNF12]
2.8

Entry to check: LGKKGVPYVVTHDGRTI [RPS4A]
2.43

Item: MFQSQSQLQPQPQPQPQ [YDL088C/ASM4]
2.48

Try the sequence CSKSIPKDKAIKRMAIR [RPS26A]
2.8

Try this sequence next: VIFDASIKDTQNVGQGK [BRN1]
2.15

Another sequence to check: KSSGSSMATPTHSDSHE [ROX3]
3.08

Then what about the sequence ALLTKRLYPHWDHPVIA [CSN12] ?
2.19

Can you handle ASRSQLEKGEIELSDGS [YJL039C/NUP192] next?
3.06

Now give it for EDVVAISSRTYGQRAVL [RPS0B] too.
3.28

Here is the next sequence: ECLQAYIFFGPIYYQKL [RET1]
2.54

Same question, REPRVVSALQMLKQHLF [PUP1] this time
3.1

// next record LIYHLKDCAEVDSRTKI [IRR1]
3.23

Follow-up item: NLFPLKPKMLPIPSKPT [SRP68]
2.38

And what about the sequence LKYYQDLKNTRMKSITS [SNF5] ?
1.45
